Entries and their measured inhibition follow.
subject_of_test: Cathepsin D (Homo sapiens)
assay_info: Inhibition of cathepsin D (unknown origin) at 100 uM relative to control
Report the figure in % without appending any unit label.

Look over these answered cases.
query_smiles	readout_unit	measured
O=C1/C(=C/c2ccc(N3CCCCC3)cc2)Cc2cc3c(cc21)OCO3	%	39.1
CN(C)c1ccc(/C=C2\Cc3cc4c(cc3C2=O)OCO4)cc1	%	27.5
O=C1/C(=C/c2ccc(N3CCCC3)cc2)Cc2cc3c(cc21)OCO3	%	52.7
O=C1/C(=C/c2ccc(N3CCOCC3)cc2)Cc2cc3c(cc21)OCO3	%	34.9
CN1CCN(c2ccc(/C=C3\Cc4cc5c(cc4C3=O)OCO5)cc2)CC1	%	26

Enquiry: So what does the record say about inhibition for "CCN(CC)c1ccc(/C=C2\Cc3cc4c(cc3C2=O)OCO4)cc1" ?
Return: 30.4
